EC50 values by entry
# SYSTEM TESTED: Lutropin-choriogonadotropic hormone receptor (Homo sapiens)
# Sequence (P22888 whole entry): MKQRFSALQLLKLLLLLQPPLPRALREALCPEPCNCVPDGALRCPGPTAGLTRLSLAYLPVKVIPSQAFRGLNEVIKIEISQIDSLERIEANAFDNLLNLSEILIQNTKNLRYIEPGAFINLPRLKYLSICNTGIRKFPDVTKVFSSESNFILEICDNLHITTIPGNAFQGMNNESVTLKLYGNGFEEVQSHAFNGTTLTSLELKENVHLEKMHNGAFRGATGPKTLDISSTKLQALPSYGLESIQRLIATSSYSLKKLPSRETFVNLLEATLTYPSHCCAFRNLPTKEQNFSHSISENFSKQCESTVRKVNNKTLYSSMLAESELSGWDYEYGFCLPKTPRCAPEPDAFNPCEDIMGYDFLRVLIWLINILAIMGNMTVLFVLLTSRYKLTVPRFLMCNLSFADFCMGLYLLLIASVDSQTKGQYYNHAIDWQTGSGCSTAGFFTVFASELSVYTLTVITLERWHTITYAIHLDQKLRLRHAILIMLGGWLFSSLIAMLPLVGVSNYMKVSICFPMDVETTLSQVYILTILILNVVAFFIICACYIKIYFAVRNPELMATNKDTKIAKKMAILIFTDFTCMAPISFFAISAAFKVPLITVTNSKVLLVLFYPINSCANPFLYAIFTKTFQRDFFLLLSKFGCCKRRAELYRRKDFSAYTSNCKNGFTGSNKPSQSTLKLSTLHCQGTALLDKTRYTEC
# ASSAY INFO: Agonist activity at human LH receptor expressed in CHO cells assessed as production of cAMP after 60 mins by SPA
OBSERVABLE: EC50 (nM)

INSERT INTO results (molecule, value_units, limit_operator, quantitative_readout) VALUES
  ('CC(C)(C)c1ccc(-n2nc(-c3ccncc3)cc2NCCCC(=O)N[C@@H](Cc2ccc(O)cc2)C(N)=O)cc1', 'nM', '>', 100000),
  ('CC(C)(C)c1ccc(-n2nc(-c3cccnc3)cc2CCCCC(=O)NCCc2ccc(O)cc2)cc1', 'nM', '=', 80),
  ('CC(C)(C)c1ccc(-n2nc(-c3cccnc3)cc2CCCCC(=O)N[C@@H](Cc2ccc(O)cc2)C(N)=O)cc1', 'nM', '=', 20),
  ('CC(C)(C)Oc1ccc(C[C@H](NC(=O)CCCCc2cc(-c3cccnc3)nn2-c2ccc(C(C)(C)C)cc2)C(N)=O)cc1', 'nM', '=', 12100);
